# assay-notes: NCI Yeast Anticancer Drug Screen. Data for the mlh1 rad18 strain (AID 175)
# condition-context: S. cerevisiae mlh1 rad18 strain growth inhibition; at 50.0 µM (retest, dose inferred, filed as 5.0)
About 79,000 compounds went through this panel and 15% of them were active in at least one assay; those are over-represented in the sample as a whole. The source made the active and inactive calls. Cut-off read from the data, not from the text of the source: active = growth inhibition above about 70%; inactive = the rest.
Outcomes: active, inactive

| compound | qualitative-label |
| --- | --- |
| CSC(=S)NN=C1CCCC1 | active |
| C=C1OC(=O)C(=O)N1CC(=O)O | inactive |
| Nc1ccc(Oc2ccccc2)cc1 | inactive |
| Clc1ccc(SSc2ccc(Cl)cn2)nc1 | active |
| COc1c([N+](=O)[O-])cc(-c2ccccc2)cc1[N+](=O)[O-] | active |
| c1ccc2c(c1)Cc1nc3ccccc3nc1-2 | active |
| O=C(/C=C/c1ccc(O)cc1)c1cc(Cl)ccc1O | active |
| CCCCCCCCCCOC(=O)c1cccnc1 | active |
| COC(=O)C(C#N)C(c1ccccc1)c1c[nH]c2ccccc12 (centres undefined) | active |
| Cc1cc([N+](=O)[O-])cc(C)[n+]1[O-] | inactive |
| C=C(C)CCC(=C)C | inactive |
| CC1C(=O)C(Br)CC2C1(C)CCC1C2(C)CCC2(C)C3CC(C)(C)CCC3(C)CCC12C (centres undefined) | inactive |
| CCCCCCCCCCCC(N)c1ccccc1 (centres undefined) | active |
| Cc1cc2c(C(C)C)c(O)c(O)c(C=Nc3ccc(C(=O)O)cc3)c2c(O)c1-c1c(C)cc2c(C(C)C)c(O)c(O)c(C=Nc3ccc(C(=O)O)cc3)c2c1O | active |
| O=C1CCCCO1 | inactive |
| CCOC(=O)Nc1nc2ccc(SC#N)cc2s1 | active |
| Cc1ccc(-c2c(C#N)c(-c3ccc(Cl)cc3)c(C#N)c(=O)n2NS(=O)(=O)c2ccccc2)cc1 | inactive |
| CCCCCCCCCCCCCCCCCc1nnc(N)o1 | inactive |
| COC(=O)C1(C)CC2C(C)(CCC3(C)C4=CC=C5C(=CC(=O)C(O)=C5C)C4(C)CCC23C)CC1O (centres undefined) | active |
| CCCCCCCCCC(C)CC(=O)NCCCN(C)CCCCN(C)C (centres undefined) (tested in a mixture with another compound) | active |
| CCOP(=O)(OCC)OC1c2[nH]ccc2-c2cc(C(=O)OC)[nH]c2C1OC (centres undefined) | inactive |
| CCC[CH2][Ge]([CH2]CCC)([CH2]CCC)[O]C(=O)CC(=O)c1ccccc1 | inactive |
| Oc1ccc2c(c1)Cc1ccccc1-2 | active |
| O=C(O)c1ccc2c(Br)ccc3c2c1CC3 | inactive |
